- target.entity: HiBiT-KRAS^G12D (Homo sapiens, UniProt P01116, G12D)
- Construct: HiBiT-tagged
- Sequence (P01116 whole entry G12D): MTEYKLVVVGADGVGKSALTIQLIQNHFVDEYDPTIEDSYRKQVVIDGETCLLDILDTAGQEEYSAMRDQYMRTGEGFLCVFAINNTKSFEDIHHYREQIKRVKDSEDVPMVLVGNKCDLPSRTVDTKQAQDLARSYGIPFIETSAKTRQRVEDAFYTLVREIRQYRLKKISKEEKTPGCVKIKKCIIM
- Set-up: HiBiT-KRAS degradation, split nanoluciferase lytic detection
- recorded.conditions: degrader; read-out: DC50 24 h GP5d HiBiT
property.measured: DC50 (nM)

Cc1ncsc1-c1ccc(CNC(=O)[C@@H]2C[C@@H](O)CN2C(=O)[C@@H](c2cc(OCCCCN3CCCN(c4nccc(-c5noc([C@@]6(C)CCCc7sc(N)c(C#N)c76)n5)n4)[C@@H](C)C3)no2)C(C)C)cc1 [compound 4] = 1.4

(A) Cc1ncsc1-c1ccc(CNC(=O)[C@@H]2C[C@@H](O)CN2C(=O)[C@@H](NC(=O)COCCCN2CCCN(c3nccc(-c4noc([C@@]5(C)CCCc6sc(N)c(C#N)c65)n4)n3)[C@@H](C)C2)C(C)(C)C)cc1 [compound 2]
(B) Cc1ncsc1-c1ccc([C@H](CO)NC(=O)[C@@H]2C[C@@H](O)CN2C(=O)[C@H](C(C)C)n2cc(OCCCCN3CCCN(c4nccc(-c5noc([C@@]6(C)CCCc7sc(N)c(C#N)c76)n5)n4)[C@@H](C)C3)nn2)cc1 [compound 7, ACBI3]
(C) Cc1ncsc1-c1ccc(CNC(=O)[C@@H]2C[C@@H](O)CN2C(=O)[C@@H](NC(=O)CCCCCN2CCCN(c3nccc(-c4noc([C@@]5(C)CCCc6sc(N)c(C#N)c65)n4)n3)[C@@H](C)C2)C(C)(C)C)cc1 [compound 3]
stdin: # desc sort on DC50 across 3 compounds When ranking, write the labels in the order the request describes.
stdout: A, C, B

----------
- Tested on: SW620
- assay.remarks: cells
- Parameters: Inhibition of cell proliferation, 5 days
- recorded.conditions: Homo sapiens, SW-620, 120 h; read-out: IC50 Proliferation SW620
pIC50: −log10 of the molar value.
property.measured: pIC50

Cc1ncsc1-c1ccc(CNC(=O)[C@@H]2C[C@@H](O)CN2C(=O)[C@@H](c2cc(OCCCCN3CCCN(c4nccc(-c5noc([C@@]6(C)CCCc7sc(N)c(C#N)c76)n5)n4)[C@@H](C)C3)no2)C(C)C)cc1 = 7.96

(1) Cc1ncsc1-c1ccc(CNC(=O)C2CC(O)CN2C(=O)C(c2cc(OCCCCN3CCCN(c4nccc(-c5noc(C6(C)CCCc7sc(N)c(C#N)c76)n5)n4)C(C)C3)no2)C(C)C)cc1 (stereo not shown)
(2) C[C@H](Oc1ccnc(-c2noc([C@@]3(C)CCCc4sc(N)c(C#N)c43)n2)n1)[C@@H]1CCCN1C
stdin: In the pair 1 and 2 , the larger recorded pIC50 belongs to which? Label of pick, please.
stdout: 2

----------
- target.entity: KRAS^G12D (Homo sapiens, UniProt P01116, G12D)
- Set-up: endogenous; KRAS degradation by capillary electrophoresis immunodetection
- recorded.conditions: degrader; read-out: DC50 24 h GP5d
property.measured: DC50 (µM)

Cc1ncsc1-c1ccc(CNC(=O)[C@@H]2C[C@@H](O)CN2C(=O)[C@@H](NC(=O)COCCCN2CCCN(c3nccc(-c4noc([C@@]5(C)CCCc6sc(N)c(C#N)c65)n4)n3)[C@@H](C)C2)C(C)(C)C)cc1 = 0.607
Cc1ncsc1-c1ccc([C@H](CO)NC(=O)[C@@H]2C[C@@H](O)CN2C(=O)[C@H](C(C)C)n2cc(OCCCCN3CCCN(c4nccc(-c5noc([C@@]6(C)CCCc7sc(N)c(C#N)c76)n5)n4)[C@@H](C)C3)nn2)cc1 = 0.0021

(A) Cc1ncsc1-c1ccc(CNC(=O)[C@@H]2C[C@@H](O)CN2C(=O)[C@@H](c2cc(OCCCCN3CCCN(c4nccc(-c5noc([C@@]6(C)CCCc7sc(N)c(C#N)c76)n5)n4)[C@@H](C)C3)no2)C(C)C)cc1
(B) Cc1ncsc1-c1ccc(CNC(=O)[C@@H]2C[C@@H](O)CN2C(=O)[C@@H](NC(=O)CCCCCN2CCCN(c3nccc(-c4noc([C@@]5(C)CCCc6sc(N)c(C#N)c65)n4)n3)[C@@H](C)C2)C(C)(C)C)cc1
stdin: Given A and given B , which shows the smaller recorded DC50? Write down the label of the entry you select.
stdout: A
(A: 0.0009 µM, B: 0.0318 µM)

----------
- target.entity: KRAS^G12D (Homo sapiens, UniProt P01116, G12D)
- assay.remarks: cell-based
- Set-up: endogenous; KRAS degradation by capillary electrophoresis immunodetection
- recorded.conditions: GP2d; read-out: Dmax 24 h GP2d [%]
property.measured: Dmax (%)

Cc1ncsc1-c1ccc([C@H](CO)NC(=O)[C@@H]2C[C@@H](O)CN2C(=O)[C@H](C(C)C)n2cc(OCCCCN3CCCN(c4nccc(-c5noc([C@@]6(C)CCCc7sc(N)c(C#N)c76)n5)n4)[C@@H](C)C3)nn2)cc1 = 99
Cc1ncsc1-c1ccc(CNC(=O)[C@@H]2C[C@@H](O)CN2C(=O)[C@@H](NC(=O)CCCCCN2CCCN(c3nccc(-c4noc([C@@]5(C)CCCc6sc(N)c(C#N)c65)n4)n3)[C@@H](C)C2)C(C)(C)C)cc1 = 96
Cc1ncsc1-c1ccc(CNC(=O)[C@@H]2C[C@@H](O)CN2C(=O)[C@@H](c2cc(OCCCCN3CCCN(c4nccc(-c5noc([C@@]6(C)CCCc7sc(N)c(C#N)c76)n5)n4)[C@@H](C)C3)no2)C(C)C)cc1 = 96
